Cited source for all entries: paper PMC5114681

Target: UniProt:Q8I273
Sequence (Q8I273 entry or part of it): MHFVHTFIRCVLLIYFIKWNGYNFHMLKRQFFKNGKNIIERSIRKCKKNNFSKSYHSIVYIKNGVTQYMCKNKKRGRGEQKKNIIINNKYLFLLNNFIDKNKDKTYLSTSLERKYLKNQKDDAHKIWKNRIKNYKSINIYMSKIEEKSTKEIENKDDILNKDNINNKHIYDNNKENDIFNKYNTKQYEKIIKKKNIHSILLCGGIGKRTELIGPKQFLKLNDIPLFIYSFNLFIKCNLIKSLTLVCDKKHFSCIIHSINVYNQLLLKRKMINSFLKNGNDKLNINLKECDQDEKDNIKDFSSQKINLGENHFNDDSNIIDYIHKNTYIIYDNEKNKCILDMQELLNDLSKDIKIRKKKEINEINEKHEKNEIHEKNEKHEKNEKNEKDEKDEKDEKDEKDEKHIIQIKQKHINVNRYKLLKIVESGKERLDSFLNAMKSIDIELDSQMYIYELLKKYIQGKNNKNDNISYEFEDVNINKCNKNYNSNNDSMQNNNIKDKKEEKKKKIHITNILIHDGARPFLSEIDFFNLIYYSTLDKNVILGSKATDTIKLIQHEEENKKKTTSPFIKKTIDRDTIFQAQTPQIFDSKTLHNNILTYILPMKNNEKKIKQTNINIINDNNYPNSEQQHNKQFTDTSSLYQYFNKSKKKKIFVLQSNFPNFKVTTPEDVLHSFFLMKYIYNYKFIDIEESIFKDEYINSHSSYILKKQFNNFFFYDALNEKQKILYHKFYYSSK
Decision: IC50 beneath 400 nM gives Criterion met; IC50 meeting or exceeding 400 nM gives Criterion not met.

Compound	Class label
O=c1c2ccccc2sn1-c1cccc(-c2ccc(CN3CCC(F)CC3)cc2)c1 [compound 12]	Criterion not met
O=c1c2ccccc2sn1-c1cccc(-c2ccc(Cl)cc2)c1 [compound 9]	Criterion met
O=c1c2ccccc2sn1-c1cccc(-c2ccc(C(F)(F)F)cc2)c1 [compound 10]	Criterion met
Cc1ccc(-n2sc3ccccc3c2=O)cc1S(=O)(=O)N1CCOCC1 [compound 7]	Criterion not met
CN1CCN(Cc2ccc(-c3cccc(-n4sc5ccccc5c4=O)c3)cc2)CC1 [compound 11]	Criterion not met

* * *

Target: PvIspD (Plasmodium vivax)
Sequence (A5K9U5 entry or part of it): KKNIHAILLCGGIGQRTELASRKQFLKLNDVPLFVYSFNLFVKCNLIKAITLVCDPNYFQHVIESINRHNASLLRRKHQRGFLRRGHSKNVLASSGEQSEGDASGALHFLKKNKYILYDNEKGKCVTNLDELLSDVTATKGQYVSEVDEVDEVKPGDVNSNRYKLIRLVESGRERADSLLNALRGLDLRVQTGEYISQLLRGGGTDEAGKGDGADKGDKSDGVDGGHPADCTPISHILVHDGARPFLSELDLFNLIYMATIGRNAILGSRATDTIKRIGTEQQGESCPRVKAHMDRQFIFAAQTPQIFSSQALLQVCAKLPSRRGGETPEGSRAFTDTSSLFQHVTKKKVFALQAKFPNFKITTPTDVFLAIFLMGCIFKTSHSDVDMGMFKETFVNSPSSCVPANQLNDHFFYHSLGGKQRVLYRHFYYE
Test: IspD enzyme assay (EnzChek phosphate release), recombinant PvIspD
Entries and their IC50 values follow.

Compound	Unit symbol	IC50
O=c1c2ccccc2sn1-c1cccc(-c2ccc(Cl)cc2)c1 [compound 9]	nM	57
O=c1c2ccccc2sn1-c1cccc(-c2ccc(CN3CCOCC3)cc2)c1 [compound 13]	nM	50
CN1CCN(Cc2ccc(-c3cccc(-n4sc5ccccc5c4=O)c3)cc2)CC1 [compound 11]	nM	62
O=c1c2ccccc2sn1-c1cccc(-c2ccc(C(F)(F)F)cc2)c1 [compound 10]	nM	41
Cc1ccc(-n2sc3ccccc3c2=O)cc1S(=O)(=O)N1CCOCC1 [compound 7]	nM	45
O=c1c2ccccc2sn1-c1cccc(-c2ccc(CN3CCC(F)CC3)cc2)c1 [compound 12]	nM	240

* * *

Target: EcIspD-A14C (Escherichia coli, UniProt Q46893, A14C)
Construct: Amplicons containing the entire E. coli IspD gene were generated; 6His (N)
Sequence (Q46893 whole entry A14C): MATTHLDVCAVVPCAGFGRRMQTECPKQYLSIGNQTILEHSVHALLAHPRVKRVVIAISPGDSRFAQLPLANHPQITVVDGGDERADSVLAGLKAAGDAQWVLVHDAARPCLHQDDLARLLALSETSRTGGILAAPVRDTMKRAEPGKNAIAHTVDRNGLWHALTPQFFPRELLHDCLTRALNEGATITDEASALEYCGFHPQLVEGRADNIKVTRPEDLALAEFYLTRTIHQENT
Experiment: IspD enzyme assay, recombinant EcIspD-A14C mutant

Molecule	IC50
COc1ccc(-c2cccc(-n3sc4ccccc4c3=O)c2)cc1 [compound 8]	440 nM

* * *

Tested on: P. falciparum strain 3D7
Assay: Parasite growth inhibition with and without IPP supplementation (rescue)
Assay type: cell-based
Details: Plasmodium falciparum, 3D7; mean and SEM, n ≥ 3

Mol smiles	EC50
COc1ccc(-c2cccc(-n3sc4ccccc4c3=O)c2)cc1	980 nM
